# CONDITION: in water, 303.15 K
ENDPOINT: solubility (mole fraction)
Please give only the number in your answer, with no unit.

Query: Form field: reported solubility (mole fraction) of `NC(=O)C[C@H](N)C(=O)O.O`
Response: 0.00422

----------
# CONDITION: in acetonitrile, 293.15 K
ENDPOINT: solubility (mole fraction)
Please give only the number in your answer, with no unit.

Query: Form field: reported solubility (mole fraction) of `NC(=O)C[C@H](N)C(=O)O.O`
Response: 1.44e-05

----------
# CONDITION: in isobutanol, 323.15 K
ENDPOINT: solubility (mole fraction)

Query: Form field: reported solubility (mole fraction) of `NC(=O)C[C@H](N)C(=O)O.O`
Response: 0.000114

----------
# CONDITION: in water, 278.15 K
ENDPOINT: solubility (mole fraction)
Please give only the number in your answer, with no unit.

Query: Form field: reported solubility (mole fraction) of `NC(=O)C[C@H](N)C(=O)O.O`
Response: 0.0014

----------
# CONDITION: in methyl acetate, 293.15 K
ENDPOINT: solubility (mole fraction)
Please give only the number in your answer, with no unit.

Query: Form field: reported solubility (mole fraction) of `NC(=O)C[C@H](N)C(=O)O.O`
Response: 3.78e-05

----------
# CONDITION: in methyl acetate, 308.15 K
ENDPOINT: solubility (mole fraction)
Please give only the number in your answer, with no unit.

Query: Form field: reported solubility (mole fraction) of `NC(=O)C[C@H](N)C(=O)O.O`
Response: 7.98e-05

----------
# CONDITION: in methanol, 303.15 K
ENDPOINT: solubility (mole fraction)
Please give only the number in your answer, with no unit.

Query: Form field: reported solubility (mole fraction) of `NC(=O)C[C@H](N)C(=O)O.O`
Response: 5.86e-05

----------
# CONDITION: in methanol, 323.15 K
ENDPOINT: solubility (mole fraction)
Please give only the number in your answer, with no unit.

Query: Form field: reported solubility (mole fraction) of `NC(=O)C[C@H](N)C(=O)O.O`
Response: 0.000147

----------
# CONDITION: in water, 308.15 K
ENDPOINT: solubility (mole fraction)
Please give only the number in your answer, with no unit.

Query: Form field: reported solubility (mole fraction) of `NC(=O)C[C@H](N)C(=O)O.O`
Response: 0.00518

----------
# CONDITION: in ethanol, 323.15 K
ENDPOINT: solubility (mole fraction)
Please give only the number in your answer, with no unit.

Query: Form field: reported solubility (mole fraction) of `NC(=O)C[C@H](N)C(=O)O.O`
Response: 0.000136

----------
# CONDITION: in isobutanol, 303.15 K
ENDPOINT: solubility (mole fraction)
Please give only the number in your answer, with no unit.

Query: Form field: reported solubility (mole fraction) of `NC(=O)C[C@H](N)C(=O)O.O`
Response: 4.36e-05

----------
# CONDITION: in isobutanol, 318.15 K
ENDPOINT: solubility (mole fraction)
Please give only the number in your answer, with no unit.

Query: Form field: reported solubility (mole fraction) of `NC(=O)C[C@H](N)C(=O)O.O`
Response: 8.97e-05

----------
# CONDITION: in n-butyl acetate, 298.15 K
ENDPOINT: solubility (mole fraction)
Please give only the number in your answer, with no unit.

Query: Form field: reported solubility (mole fraction) of `NC(=O)C[C@H](N)C(=O)O.O`
Response: 4.54e-05
